Recorded Kd for the following binders
STUDY TARGET: T1, human TIGIT ECD-his (fusion protein of extracellular domain of human TIGIT and His-tag) (human)
T1 construct: entry includes the signal peptide, limits not readable here
T1 chain: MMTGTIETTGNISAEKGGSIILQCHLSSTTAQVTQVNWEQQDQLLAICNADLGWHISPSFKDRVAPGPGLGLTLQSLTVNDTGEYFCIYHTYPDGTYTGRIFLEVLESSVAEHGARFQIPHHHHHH
EXPERIMENT: BIAcore kinetics
READOUT LABEL: Kd (nM)

>>> experimental_value("TIGIT-F2-002 (antibody, V domains shown, mouse hybridoma antibody; variable domains are those printed for the chimeric TIGIT-CHI-002 built from the mouse antibody; tie rests on the number 002 only; also called mouse antibody TIGIT-002) VH: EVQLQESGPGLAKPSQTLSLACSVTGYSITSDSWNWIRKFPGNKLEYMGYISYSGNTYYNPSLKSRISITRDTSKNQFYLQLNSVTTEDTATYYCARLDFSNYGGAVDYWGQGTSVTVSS VL: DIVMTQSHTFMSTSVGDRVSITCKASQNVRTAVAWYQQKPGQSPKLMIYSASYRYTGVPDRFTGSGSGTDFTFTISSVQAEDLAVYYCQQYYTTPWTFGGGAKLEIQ")
0.0476
>>> experimental_value("TIGIT-F5-070 (antibody, V domains shown, mouse hybridoma antibody; variable domains as printed for TIGIT-CHI-070; tie rests on the number 070 only; also called mouse antibody TIGIT-070) VH: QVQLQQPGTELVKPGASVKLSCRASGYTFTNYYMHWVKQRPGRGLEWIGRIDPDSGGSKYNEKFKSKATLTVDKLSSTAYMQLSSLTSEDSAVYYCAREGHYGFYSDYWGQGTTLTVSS VL: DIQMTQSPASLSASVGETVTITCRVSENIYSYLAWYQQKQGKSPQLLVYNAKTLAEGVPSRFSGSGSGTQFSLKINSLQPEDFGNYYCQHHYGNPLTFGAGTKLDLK")
0.155
>>> experimental_value("TIGIT-F2-005 (antibody, V domains shown, mouse hybridoma antibody; variable domains as printed for TIGIT-CHI-005; tie rests on the number 005 only; also called mouse antibody TIGIT-005) VH: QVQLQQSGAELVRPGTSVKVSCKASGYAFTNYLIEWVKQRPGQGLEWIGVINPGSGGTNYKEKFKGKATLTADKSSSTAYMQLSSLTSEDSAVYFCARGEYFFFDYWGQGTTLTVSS VL: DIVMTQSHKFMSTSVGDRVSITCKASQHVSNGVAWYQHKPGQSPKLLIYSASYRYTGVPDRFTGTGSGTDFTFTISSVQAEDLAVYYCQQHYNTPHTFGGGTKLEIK")
0.0333
>>> experimental_value("TIGIT-F2-006 (antibody, V domains shown, mouse hybridoma antibody; variable domains as printed for TIGIT-CHI-006; tie rests on the number 006 only; also called mouse antibody TIGIT-006) VH: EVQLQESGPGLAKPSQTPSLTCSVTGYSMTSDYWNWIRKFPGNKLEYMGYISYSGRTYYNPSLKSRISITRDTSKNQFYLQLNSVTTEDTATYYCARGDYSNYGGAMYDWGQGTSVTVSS VL: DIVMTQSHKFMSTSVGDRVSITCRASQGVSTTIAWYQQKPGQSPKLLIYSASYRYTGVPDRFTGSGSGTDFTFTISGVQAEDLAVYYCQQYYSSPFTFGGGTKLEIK")
0.0414
